Values were extracted from paper PMC11081419.

ASSAY_SYSTEM: T1, EVA‐ACA1001, Avi-tagged and biotinylated (SPR construct) (Amblyomma cajennense (Cayenne tick), UniProt A0A023FFD0 29-136, biotin on the AVI tag (BirA ligase))
T1 construct: EVA-ACA1001 (Evasin P991), class A3 evasin of Amblyomma cajennense; mass of the untagged protein 11,920 Da (calculated 11,921 Da with five disulfides); also called Evasin P991; full‐length EVA‐ACA1001; not shown: His6, N-terminal, cleaved; SUMO, N-terminal, cleaved
T1 sequence: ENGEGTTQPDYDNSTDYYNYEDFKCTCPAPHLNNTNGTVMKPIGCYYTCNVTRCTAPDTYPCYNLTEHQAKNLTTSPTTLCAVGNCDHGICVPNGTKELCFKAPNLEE
TEST_DESCRIPTION: SPR; affinity determination: biotinylated Avi-tagged evasin immobilised on a streptavidin-coated CAPture chip; five two-fold increasing chemokine concentrations (31.25-500 nM), 240 s at 30 uL/min, 600 s dissociation; 1:1 binding model; 25°C; 10 mM HEPES, 500 mM NaCl, 0.002% Tween 20, 3 mM EDTA, 1 mg/mL carboxymethyl dextran, pH 7.5; three independent experiments (Table 1 caption: multiple-cycle kinetics)
CONDITION_INFO: both partners purified
Can you tell me pKd for the items I'm about to list?

For reference, reported pKd for CCL21 (ligand, human, UniProt O00585 24-134, looked up, CCL21, human CC chemokine) SDGGAQDCCLKYSQRKIPAKVVRSYRKQEPSLGCSIPAILFLPRKRSQAELCADPKELWVQQLMQHLDKTPSPQKPAQGCRKDRGASKTGKKGKGSKGCKRTERSQTPKGP stands at 8.19 -log(Kd, M)

Lookup result for CCL23 (ligand) RVTKDAETEFMMSKLPLENPVLLDRFHATSADCCISYTPRSIPCSLLESYFETNSECSKPGVIFLTKKGRRFCANPSDKQVQVCMRMLKLDTRIKTRKN ; measured pKd: 8.93 -log(Kd, M)

The binder listed as CCL27 (ligand, human, UniProt Q9Y4X3 25-112, looked up, CCL27, human CC chemokine) FLLPPSTACCTQLYRKPLSDKLLRKVIQVELQEADGDCHLQAFVLHLAQRSICIHPQNPSLSQWFEHQERKLHGTLPKLNFGMLRKMG shows pKd equal to 7.07 -log(Kd, M)

Given item CCL8 (ligand, human, UniProt P80075 24-99, looked up, CCL8, human CC chemokine) QPDSVSIPITCCFNVINRKIPIQRLESYTRITNIQCPKEAVIFKTKRGKEVCADPKERWVRDSMKHLDQIFQNLKP , the value recorded as its pKd is 8.34 -log(Kd, M)
